Values were extracted from ChEMBL document CHEMBL4840362.

System: SW480
Assay: Cytotoxicity against human SW480 cells assessed as inhibition of cell growth at 40 uM measured after 48 hrs by MTS assay
Assay type: functional, cell-based
Calls of active or inactive are those of the source. No cut-off for these calls is given here.
reported metric: Activity

mol=COC(=O)C1=CCC[C@@H]2[C@]13CC[C@H](C)[C@@]21C[C@H](c2ccoc2)O[C@H]1OC3=O assayed_system=SW480 reported=inactive
mol=COC(=O)[C@@H]1C=CC[C@@H]2C13CC[C@@H](C)[C@]21C[C@@H](c2ccoc2)O[C@@H]1O3 assayed_system=SW480 reported=inactive
mol=COC(=O)C1=CCC[C@H]2C1=CC[C@@H](C)[C@]21C[C@@H](c2ccoc2)OC1=O assayed_system=SW480 reported=inactive
mol=COC(=O)c1cccc2c1CC[C@@H](C)[C@]21C[C@@H](c2ccoc2)OC1=O assayed_system=SW480 reported=inactive
mol=COC(=O)C1=CCC[C@H]2C13CC[C@@H](C)[C@]21C[C@@H](c2ccoc2)O[C@@H]1O3 assayed_system=SW480 reported=inactive

Prompt: // returns reported Activity for input COC(=O)C1=CCC[C@@H]2C13CC[C@H](C)[C@@]21C[C@H](c2ccoc2)O[C@H]1O[C@@H]3O
Completion: inactive

Prompt: // returns reported Activity for input COC(=O)C12C=CC[C@@H]3[C@@H]1CC[C@H](C)[C@@]31C[C@H](c3ccoc3)O[C@H]1O2
Completion: inactive

Prompt: // returns reported Activity for input CCCCCCCCCC(=O)O[C@@H]1[C@@H](C)[C@@]2(O)[C@@H](C=C(CO)C[C@]3(O)C(=O)C(C)=C[C@@H]23)[C@@H]2C(C)(C)[C@]12OC(C)=O
Completion: inactive
